Reported values of pIC50 for individual entries
- targetEntity: CSF1R (Homo sapiens)
- Sequence (P07333 20-972): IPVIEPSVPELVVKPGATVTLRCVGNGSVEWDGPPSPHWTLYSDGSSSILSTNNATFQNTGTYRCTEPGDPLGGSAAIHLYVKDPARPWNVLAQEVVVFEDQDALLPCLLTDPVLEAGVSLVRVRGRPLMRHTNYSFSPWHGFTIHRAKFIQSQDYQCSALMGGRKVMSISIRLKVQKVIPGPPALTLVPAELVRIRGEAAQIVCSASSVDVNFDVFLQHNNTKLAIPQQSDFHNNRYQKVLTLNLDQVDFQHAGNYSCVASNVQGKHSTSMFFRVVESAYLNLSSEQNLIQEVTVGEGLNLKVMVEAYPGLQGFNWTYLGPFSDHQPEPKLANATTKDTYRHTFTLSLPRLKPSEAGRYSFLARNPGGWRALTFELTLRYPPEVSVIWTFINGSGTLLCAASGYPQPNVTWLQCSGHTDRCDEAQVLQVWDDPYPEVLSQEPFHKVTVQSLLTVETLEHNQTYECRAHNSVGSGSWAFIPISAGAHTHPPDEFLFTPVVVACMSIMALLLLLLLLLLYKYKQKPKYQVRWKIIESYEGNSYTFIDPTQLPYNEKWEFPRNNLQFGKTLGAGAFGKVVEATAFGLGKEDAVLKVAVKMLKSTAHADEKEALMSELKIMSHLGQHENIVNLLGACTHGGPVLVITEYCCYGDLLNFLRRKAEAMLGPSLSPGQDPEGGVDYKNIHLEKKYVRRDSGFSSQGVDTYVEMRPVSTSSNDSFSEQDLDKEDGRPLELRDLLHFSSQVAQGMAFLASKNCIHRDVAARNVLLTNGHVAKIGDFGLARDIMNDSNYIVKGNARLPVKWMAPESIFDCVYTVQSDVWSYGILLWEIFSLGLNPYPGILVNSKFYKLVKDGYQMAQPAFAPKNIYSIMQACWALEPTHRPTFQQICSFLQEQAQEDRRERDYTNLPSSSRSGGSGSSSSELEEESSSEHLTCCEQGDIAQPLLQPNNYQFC
- testProtocol: HEK293 CSF1R phosphorylation MSD assay
- Format: cell-based
- Design: expressed in transfected cells; host or cells: HEK293
- measurementParameters: HEK293 cells, M-CSF stimulated CSF1R phosphorylation, MSD; read-out: HEK293 pCSF1R M-CSF MSD:IC50
pIC50: −log10 of the molar value.

stdin: Could you share which pIC50 value was measured for O[C@@H]1CCCC[C@H]1Nc1nc2ccc(Cn3cnc4cc(C(F)(F)F)ccc43)cc2s1 [Example 130] ?
stdout: 6.30 to 6.70

stdin: Could you share which pIC50 value was measured for COc1ccc2c(c1)ncn2Cc1ccc2nc(N[C@@H]3CCCC[C@H]3O)oc2c1 [Example 151] ?
stdout: ≥ 7.30

stdin: Could you share which pIC50 value was measured for O[C@@H]1CCCC[C@H]1Nc1nc2ccc(Cn3cnc4cc(OCCN5CCOCC5)ccc43)cc2s1 [Example 171] ?
stdout: ≥ 7.30

stdin: Could you share which pIC50 value was measured for O[C@@H]1CCCC[C@H]1Nc1nc2c(Cl)cc(Cc3cnc4ccc(N5CCOCC5)nn34)cc2s1 [Example 156] ?
stdout: 6.30 to 6.70

stdin: Could you share which pIC50 value was measured for CC(=NO)c1ccn2c(Cc3ccc4nc(N[C@@H]5CCCC[C@H]5O)sc4c3)cnc2c1 [Example 202] ?
stdout: 6.70 to 7.30
